target: Mitogen-activated protein kinase 14 (Homo sapiens); assay: Each binding data point was carried out in duplicate or triplicate. Data were recorded in millipolarisation (mP) units and measured at an excitation wavelength of 485 nm and an emission wavelength of 520 nm. Tris(hydroxymethyl)aminomethane (Tris) assay buffer was used in all binding experiments and consisted of 10 mM Tris, 50 nM potassium chloride, and 3.5 mM 3-((3-cholamidopropyl)dimethylammonium)-1-propanesulfonate (Chaps) at pH 8.0.
Sequence (Q16539 whole entry): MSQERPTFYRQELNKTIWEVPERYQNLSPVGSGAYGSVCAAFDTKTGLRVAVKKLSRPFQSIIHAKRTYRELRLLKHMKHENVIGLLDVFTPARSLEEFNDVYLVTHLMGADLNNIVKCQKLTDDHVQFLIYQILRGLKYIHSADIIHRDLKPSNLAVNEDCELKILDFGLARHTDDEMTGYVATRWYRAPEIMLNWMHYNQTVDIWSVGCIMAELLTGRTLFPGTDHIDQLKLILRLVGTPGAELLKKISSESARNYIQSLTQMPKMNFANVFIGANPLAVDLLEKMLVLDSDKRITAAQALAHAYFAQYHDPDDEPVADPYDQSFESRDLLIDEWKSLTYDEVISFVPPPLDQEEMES
attribute-measured: pKi
One number for each entry, as −log10 of the molar value.

{"columns": ["sample-smiles", "test-target", "observed-measurement"],
 "data": [
  ["OCC#Cc1cc(-c2ccncc2)c(-c2ccc(F)cc2)s1", "Mitogen-activated protein kinase 14 (Homo sapiens)", 5.68]
]}

Prompt line: May I ask what pKi has been recorded for `OCCC#Cc1cc(-c2ccncc2)c(-c2ccc(F)cc2)s1` ?
Response line: 5.70
